The entries below are paired with their reported pKd.
- assay.protocol: Binding affinity to 32 base containing human telomeric repeat G-rich ssDNA by fluorescence quenching assay
pKd: −log10 of the molar value.

chemical.structure | comparison.operator | pKd
O=C1c2ccc3c4ccc5c6c(ccc(c7ccc(c2c37)C(=O)N1CCN1CCCCC1)c64)C(=O)N(CCN1CCCCC1)C5=O | = | 8.47
COCCOCCOCC(COCCOCCOC)N1C(=O)c2ccc3c4ccc5c6c(ccc(c7ccc(c2c37)C1=O)c64)C(=O)N(C(COCCOCCOC)COCCOCCOC)C5=O | < | 4.70

* * *

- assay.protocol: Binding affinity to double stranded human telomeric repeat by fluorescence quenching assay
Kd reference

chemical.structure | comparison.operator | Kd [nM]
COCCOCCOCC(COCCOCCOC)N1C(=O)c2ccc3c4ccc5c6c(ccc(c7ccc(c2c37)C1=O)c64)C(=O)N(C(COCCOCCOC)COCCOCCOC)C5=O | > | 20000
O=C1c2ccc3c4ccc5c6c(ccc(c7ccc(c2c37)C(=O)N1CCN1CCCCC1)c64)C(=O)N(CCN1CCCCC1)C5=O | = | 30

* * *

- assay.protocol: Binding affinity to complementary nuclease hypersensitive region of c-MYC gene NHE-27 by fluorescence quenching assay
- Set-up: species or system Homo sapiens
pKd: −log10 of the molar value.

chemical.structure | pKd
COCCOCCOCC(COCCOCCOC)N1C(=O)c2ccc3c4ccc5c6c(ccc(c7ccc(c2c37)C1=O)c64)C(=O)N(C(COCCOCCOC)COCCOCCOC)C5=O | < 4.70

* * *

- assay.protocol: Binding affinity to human nuclease hypersensitive region of c-MYC gene NHE-27 by fluorescence quenching assay

chemical.structure | Kd (nM)
O=C1c2ccc3c4ccc5c6c(ccc(c7ccc(c2c37)C(=O)N1CCN1CCCCC1)c64)C(=O)N(CCN1CCCCC1)C5=O | 5.5
COCCOCCOCC(COCCOCCOC)N1C(=O)c2ccc3c4ccc5c6c(ccc(c7ccc(c2c37)C1=O)c64)C(=O)N(C(COCCOCCOC)COCCOCCOC)C5=O | 980
